Target: hGLP-1R (Homo sapiens, UniProt P43220)
Sequence (P43220 24-463): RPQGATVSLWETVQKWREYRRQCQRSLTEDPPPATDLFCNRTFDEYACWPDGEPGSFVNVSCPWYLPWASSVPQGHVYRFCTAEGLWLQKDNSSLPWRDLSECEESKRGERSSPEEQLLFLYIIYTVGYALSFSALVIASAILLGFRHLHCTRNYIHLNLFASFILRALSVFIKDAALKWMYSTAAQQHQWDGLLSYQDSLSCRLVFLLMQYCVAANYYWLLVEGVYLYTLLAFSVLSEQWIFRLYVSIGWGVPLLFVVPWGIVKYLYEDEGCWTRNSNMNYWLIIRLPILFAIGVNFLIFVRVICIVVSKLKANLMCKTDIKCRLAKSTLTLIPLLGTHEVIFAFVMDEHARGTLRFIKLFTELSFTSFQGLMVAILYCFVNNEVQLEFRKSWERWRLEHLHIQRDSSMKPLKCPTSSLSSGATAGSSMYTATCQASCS
Assay: cell-based or functional assay
property_measured: Relative cAMP EC50 (nM)
Lab book: enter the figure in nM, no units written.

Any idea what its Relative cAMP EC50 is? The binder is YXQGTXTSDXXIXLDXKAQXEFIEXLVEGGPSSGEPPPSGE (synthetic construct; SITE 2: note = 2-Aminoisobutyric Acid; SITE 6: note = alpha-methyl-2-fluoro-L-phenylalanine; SITE 10: note = 3-(4-Pyridyl)-L-alanine; SITE 11: note = alpha-methyl-L-serine; SITE 13: note = alpha-methyl-leucine; SITE 16: note = L-ornithine; SITE 17: note = Lysine is chemically mo) [Example 750]
0.302

Same for YXQGTXTSDYSIXLDKKAQXAFIEYLEEGGPSSGAPPPSE (synthetic construct; SITE 2: note = 2-Aminoisobutyric Acid; SITE 6: note = alpha-methyl-2-fluoro-L-phenylalanine; SITE 13: note = alpha-methyl-leucine; SITE 17: note = Lysine is chemically modified through conjugation of the epsilon-amino group of the Lysine side chain with (2-[2-(2-Amino-ethoxy)-et)) [Example 424]
0.318

What do you have for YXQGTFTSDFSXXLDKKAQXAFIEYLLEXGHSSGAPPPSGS (Aib, Orn, αMeL; lipidated Lys; C-terminal amide; synthetic construct; SITE 2: note = 2-Aminoisobutyric Acid; SITE 12: note = L-ornithine; SITE 13: note = alpha-methyl-leucine; SITE 17: note = Lysine is chemically modified through conjugation of the epsilon-amino group of the Lysine side chain with (gamma-Glu)-(2-[2-(2-Amino-ethoxy)-ethoxy]-acetyl)) [Example 245] ?
5.99
